Target: T1, In house human CD8A-Fc (human, UniProt P01732 22-182, limits assumed)
T1 construct: Captured on goat anti-human Fc on a ProteOn GLC chip; also called hCD8A-Fc; recombinant human CD8 alpha; not shown: linker with flag (and polyhistidine) tag and Fc of human IgG1
T1 sequence (P01732 22-182 limits assumed): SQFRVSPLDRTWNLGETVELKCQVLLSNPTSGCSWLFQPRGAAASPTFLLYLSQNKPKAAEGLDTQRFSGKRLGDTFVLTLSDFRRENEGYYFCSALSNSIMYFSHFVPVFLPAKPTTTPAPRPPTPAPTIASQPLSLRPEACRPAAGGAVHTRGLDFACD
Assay: SPR (ProteOn), captured hCD8A-Fc
Below: a set of entries, each annotated with reported koff.
Hey, just the number and the unit after it is fine.

Use these answered entries as a reference point.
>  <binder>
P282BR9P1357_H3 (designed binder, FN3 domain) LPAPKNLVVSRVTEDSARLSWKKREYQDPGFDSFLIQYQESEKVGEAIVLTVPGSERSYDLTGLKPGTEYTVSIYGVDVKWEGNRPVASNPLSAIFTT

>  <koff>
0.000285 s⁻¹

$$$$
>  <binder>
P283AR9P1362_D2 (designed binder, FN3 domain) LPAPKNLVVSRVTEDSARLSWQRPKSGFFDSFLIQYQESEKVGEAIVLTVPGSERSYDLTGLKPGTEYTVSIYGVDVKYDIDSRPISSNPLSAIFTT

>  <koff>
0.000253 s⁻¹

$$$$
>  <binder>
P283AR9P1362_G11 (designed binder, FN3 domain) LPAPKNLVVSRVTEDSARLSWRKEATSFDSFLIQYQESEKVGEAIVLTVPGSERSYDLTGLKPGTEYTVSIYGVDVKYDIDSRPISSNPLSAIFTT

>  <koff>
0.000102 s⁻¹

$$$$
>  <binder>
P283AR9P1362_D6 (designed binder, FN3 domain) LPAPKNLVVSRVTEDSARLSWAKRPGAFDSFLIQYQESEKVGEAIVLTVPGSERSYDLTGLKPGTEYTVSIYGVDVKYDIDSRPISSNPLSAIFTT

>  <koff>
2.64e-05 s⁻¹

$$$$
>  <binder>
P282FR9P1361_F1 (designed binder, FN3 domain) LPAPKNLVVSRVTEDSARLSWTAPDAAFDSFGIWYAEYGYSGEAIVLTVPGSERSYDLTGLKPGTEYDVAIWGVKGGVRSYPLSAIFTT

>  <koff>
0.00126 s⁻¹

$$$$
>  <binder>
P282DR9P1359_E5 (designed binder, FN3 domain) LPAPKNLVVSRVTEDSARLSWTAPDAAFDSFAISYPEWPVPGEAIVLTVPGSERSYDLTGLKPGTEYFVIIYGVKGGLYSAPLSAIFTT

>  <koff>
0.00101 s⁻¹

$$$$
>  <binder>
P282AR9P1356_A4 (designed binder, FN3 domain) LPAPKNLVVSRVTEDSARLSWVKRPNSFDSFLIQYQESEKVGEAIVLTVPGSERSYDLTGLKPGTEYTVSIYGVDVVDYEGRPRWSNPLSAIFTT

>  <koff>
8.61e-05 s⁻¹

$$$$
>  <binder>
P282CR9P1358_F5 (designed binder, FN3 domain) LPAPKNLVVSRVTEDSARLSWTAPDAAFDSFWISYPEWPPDGEAIVLTVPGSERSYDLTGLKPGTEYFVIIWGVKGGETSAPLSAIFTT

>  <koff>
0.000637 s⁻¹

$$$$

Measured koff of P282ER9P1360_H2 (designed binder, FN3 domain) LPAPKNLVVSRVTEDSARLSWTAPDAAFDSFSIAYVEAELVGEAIQLVVPGSERSYDLTGLKPGTEYWVVILGVKGGNPSNPLGASFTTT : 0.000269 s⁻¹
